Test system: TK-10 renal
Test: NCI tumour cell line growth inhibition, 48 h

- molecule: "NS(=O)(=O)c1nnc(NS(=O)(=O)c2ccc([N+](=O)[O-])cc2)s1"
  TGI: "> 100 µM"
- molecule: "C=CCn1c(=N)/c(=C(\\N)O)s/c1=C1/SC(=S)N(c2ccc(C)cc2)C1=O"
  TGI: "> 100 µM"
- molecule: "O=c1c2c3c(sc2nc2n1N=CN(c1ccc(F)cc1)C2)CCCC3"
  TGI: "> 100 µM"
- molecule: "O/N=C\\C(=Nc1ccc(Cc2ccc(N=C(/C=N\\O)NO)cc2)cc1)NO"
  TGI: "> 100 µM"
- molecule: "CCNC(=S)NNC(=O)CSc1nc2ccc(I)cc2c(=O)n1Cc1ccccc1"
  TGI: "> 100 µM"
- molecule: "CC(C)=C[C@@H]1O[C@H](O)[C@@H]([C@H]2CC[C@@]3(C)[C@@H]4CC[C@H]5C(C)(C)C(=O)CC[C@@]56C[C@@]46CC[C@]23C)[C@@H]1O"
  TGI: "30.1 µM"
- molecule: "COC(=O)C1(O)C(c2ccccc2)NC2(C)CCCC21 (centres undefined)"
  TGI: "> 100 µM"
- molecule: "O=C(/C=C\\n1cnc(-c2cc(C(F)(F)F)cc(C(F)(F)F)c2)n1)N1CC(F)(F)C1"
  TGI: "3.7 µM"
- molecule: "CCC(C)(O)c1cn(-c2ccc(S(=O)(=O)O)cc2)nn1 (centres undefined)"
  TGI: "> 100 µM"

---

Test system: ACHN renal
Experiment: NCI tumour cell line growth inhibition, 48 h; in the data active means GI50 below about 0.43 µM; inactive means the rest
Possible outcomes: Y for active, N for inactive

- compound: "CN(C)CCCCCNc1c2ccccc2nc2cccc([N+](=O)[O-])c12"
  test system: "ACHN renal"
  label class: "Y"
- compound: "c1cc[c]([Sn]([O]c2cccc3cccnc23)([O]c2cccc3cccnc23)[c]2ccccc2)cc1"
  test system: "ACHN renal"
  label class: "Y"
- compound: "Cn1cncc1-c1c(F)cncc1NC(=O)c1c(N)nn2cc(F)cnc12"
  test system: "ACHN renal"
  label class: "Y"
- compound: "CC12OC(C(=O)C13CCC3)C1C(=O)c3ccc4c(ccc5ccccc54)c3C(=O)C12 (stereo not given)"
  test system: "ACHN renal"
  label class: "N"
- compound: "Nc1ccc(-c2ccc3ncc4ccc(=O)n(-c5cccc(C(F)(F)F)c5)c4c3c2)cn1"
  test system: "ACHN renal"
  label class: "Y"
- compound: "NC(CSC(c1ccccc1)(c1ccccc1)c1ccc(F)cc1)C(=O)O (stereo not given)"
  test system: "ACHN renal"
  label class: "N"
- compound: "COc1cc(NC(C)CCCNC(C)C)c2ncccc2c1OC (stereo not given)"
  test system: "ACHN renal"
  label class: "N"
- compound: "CC/C(Cc1ccccc1)=C(/c1ccc(O)cc1)c1ccc(OCCN2CCCC2)cc1"
  test system: "ACHN renal"
  label class: "N"
- compound: "C=C(CN1c2ccccc2Sc2ccccc21)c1ccc(C(=O)Nc2ccccc2N)cc1"
  test system: "ACHN renal"
  label class: "N"
- compound: "Cc1noc(C)c1-c1cnc2c(-c3ccc(C(=O)O)cc3)cn([C@@H](C)c3ccccn3)c2c1"
  test system: "ACHN renal"
  label class: "N"

---

Tested on: SK-MEL-5 melanoma
Test: NCI tumour cell line growth inhibition, 48 h
Quick list: TGI per entry.
assay readout: TGI

- compound: "Cc1noc(C)c1-c1cnc2c(-c3ccc(C(=O)O)cc3)cn([C@@H](C)c3ccccn3)c2c1"
  test system: "SK-MEL-5 melanoma"
  assay value: "4.07 µM"
- compound: "OC12CCC3(O)c4ccccc4C3C1c1ccccc12 (stereo unspecified)"
  test system: "SK-MEL-5 melanoma"
  assay value: "> 100 µM"
- compound: "C[n+]1cn(-c2nc3ccccc3nc2[N-]S(=O)(=O)c2ccccc2)c2ccccc21"
  test system: "SK-MEL-5 melanoma"
  assay value: "> 100 µM"
- compound: "COC(=O)CCC(=O)N1CC1C (stereo unspecified)"
  test system: "SK-MEL-5 melanoma"
  assay value: "> 100 µM"
- compound: "CCOc1ccc(C(C)=O)cc1NC(=O)c1cccc(-c2nnn(CC)n2)c1"
  test system: "SK-MEL-5 melanoma"
  assay value: "16.5 µM"
- compound: "COc1ccc2c3c1OC1C(OC)(OC)CC4(C=C2)CN(C)CCC314 (stereo unspecified)"
  test system: "SK-MEL-5 melanoma"
  assay value: "> 100 µM"

---

System: A498 renal
Experiment: NCI tumour cell line growth inhibition, 48 h

- compound: "CC(=O)c1c(O)n(-c2ccc(C)cc2)c(=O)c2c(N)n[nH]c12"
  test system: "A498 renal"
  measurement units: "µM"
  limit qualifier: ">"
  TGI: 100
- compound: "OC(COc1ccccc1)CN1CCCCC1 (stereo not given)"
  test system: "A498 renal"
  measurement units: "µM"
  limit qualifier: ">"
  TGI: 100
- compound: "Cc1nc(Nc2ccc(Cl)c(Cl)c2)sc1C(=O)/C=C/c1ccc2c(c1)OCO2"
  test system: "A498 renal"
  measurement units: "µM"
  limit qualifier: "="
  TGI: 47.8
- compound: "Cc1cc(N(CCC#N)CCC#N)ccc1/C(N=Nc1ccc([N+](=O)[O-])cc1)=N\\NC(=O)c1ccccc1"
  test system: "A498 renal"
  measurement units: "µM"
  limit qualifier: "="
  TGI: 74
- compound: "COC(=O)/C(=C/c1ccc(OC)cc1)C(C(=O)O)=C1CCCCC1"
  test system: "A498 renal"
  measurement units: "µM"
  limit qualifier: ">"
  TGI: 100
- compound: "Cc1c(C)c2c(c(C)c1OCC(=O)O)CC[C@@](C)(CCC[C@@H](C)CCC[C@@H](C)CCCC(C)C)O2"
  test system: "A498 renal"
  measurement units: "µM"
  limit qualifier: "="
  TGI: 167
- compound: "COc1cc(C2c3cc4c(cc3[C@@H](N(C)c3ccc(N(C)C)cc3)C3COC(=O)C23)OCO4)cc(OC)c1O (stereo not given in full)"
  test system: "A498 renal"
  measurement units: "µM"
  limit qualifier: ">"
  TGI: 100
- compound: "COc1ccc(/C=C/C(=O)Oc2ccccc2OC)cc1"
  test system: "A498 renal"
  measurement units: "µM"
  limit qualifier: ">"
  TGI: 100
- compound: "CCOc1ccc(C(C)=O)cc1NC(=O)c1cccc(-c2nnn(CC)n2)c1"
  test system: "A498 renal"
  measurement units: "µM"
  limit qualifier: "="
  TGI: 24
- compound: "COc1cccc2nc3c(C(=O)NCCN(C)C)cccc3nc12"
  test system: "A498 renal"
  measurement units: "µM"
  limit qualifier: "="
  TGI: 27.3
- compound: "CC12OC(C(=O)C13CCC3)C1C(=O)c3ccc4c(ccc5ccccc54)c3C(=O)C12 (stereo not given)"
  test system: "A498 renal"
  measurement units: "µM"
  limit qualifier: "="
  TGI: 29.6
- compound: "O=C1NC(=Nc2ccccc2Cl)N/C1=C\\c1ccc(Cl)cc1Cl"
  test system: "A498 renal"
  measurement units: "µM"
  limit qualifier: ">"
  TGI: 100
- compound: "CC(=O)NC1=C(N)C(=O)c2ccccc2C1=O"
  test system: "A498 renal"
  measurement units: "µM"
  limit qualifier: ">"
  TGI: 100
- compound: "CCN(CC)c1ccc2nc3ccc(N=Nc4ccc(O)cc4)cc3[n+](-c3ccccc3)c2c1"
  test system: "A498 renal"
  measurement units: "µM"
  limit qualifier: ">"
  TGI: 100
- compound: "COc1cccc2cc(C(=O)NC34CC5CC(CC(C5)C3)C4)c(=N)oc12"
  test system: "A498 renal"
  measurement units: "µM"
  limit qualifier: ">"
  TGI: 100
- compound: "O=C1NC(=Nc2ccccc2)C(=Nc2ccccc2)N1c1ccccc1"
  test system: "A498 renal"
  measurement units: "µM"
  limit qualifier: "="
  TGI: 31
- compound: "NS(=O)(=O)c1nnc(NS(=O)(=O)c2ccc([N+](=O)[O-])cc2)s1"
  test system: "A498 renal"
  measurement units: "µM"
  limit qualifier: ">"
  TGI: 100
- compound: "CCCCCCCCCCOC(=O)c1cc[n+](C)cc1"
  test system: "A498 renal"
  measurement units: "µM"
  limit qualifier: "="
  TGI: 36.9
- compound: "COC(=O)C1(O)C(c2ccccc2)NC2(C)CCCC21 (stereo not given)"
  test system: "A498 renal"
  measurement units: "µM"
  limit qualifier: ">"
  TGI: 100
- compound: "CC(=O)OC1C(O[C@H]2CC[C@]34O[C@]35CC[C@]3(C)C(C6(C)CC[C@@H](C(C)(C)O)O6)[C@@H](O)CC3(C)[C@@H]5CC(OC3OC(CO)C(O)C(O)C3O)C4C2(C)C)OCC(O)C1O (stereo not given in full)"
  test system: "A498 renal"
  measurement units: "µM"
  limit qualifier: ">"
  TGI: 100
